These measurements were taken from patent US20250136722A1.

% Depletion of CCR2 expressing cells reference
# System: CCR2 expressing cells (CD11b+Ly6c+ Hi) in peripheral blood
# measurement_notes: In vivo depletion assay, flow cytometry of peripheral blood (Example 201)
# Set-up: species or system Human CCR2 (hCCR2) knock-in mice (C57 background)
# run_parameters: hCCR2 knock-in mice; IV 0.1 mpk compound + 10 mpk anti-cotinine antibody (SEQ ID NO: 13/14); peripheral blood at 48 hr
Quick note: number first, unit second.

*Q* # return recorded % Depletion of CCR2 expressing cells for input `CC(C)N(C)[C@@H]1CC[C@H](N2CC[C@H](Nc3ncnc4ccc(C(F)(F)F)cc34)C2=O)[C@H](NC(=O)[C@H]2CC[C@H](N3CCN(S(=O)(=O)C4CCN(C(=O)[C@H](C)NC(=O)[C@H]5CC(=O)N(C)[C@@H]5c5cccnc5)CC4)CC3)CC2)C1`
*A* 30.51%

*Q* # return recorded % Depletion of CCR2 expressing cells for input `CC(C)N(C)[C@@H]1CC[C@H](N2CC[C@H](Nc3ncnc4ccc(C(F)(F)F)cc34)C2=O)[C@H](NC2CCN(C(=O)CCOCCOCCOCCOCCNC(=O)[C@H]3CC(=O)N(C)[C@@H]3c3cccnc3)CC2)C1`
*A* 98.59%
